Hey, just so you know, these numbers are from ChEMBL document CHEMBL1128379.

EXPERIMENT SUMMARY: Partition coefficient (logP)
Assay type: physicochemical
EXPERIMENTAL PARAMETERS: octanol/water; read-out: logP
READOUT KIND: logP

1) CCO[C@H]1O[C@@H]2O[C@@]3(C)CC[C@H]4[C@H](CO)CC[C@@H]([C@H]1C)[C@@]24OO3 | 2.08
2) C[C@H]1[C@H](O[C@@H]2O[C@H](C(=O)O)C(O)[C@H](O)C2O)O[C@@H]2O[C@H]3CC[C@H]4[C@H](C)CC[C@@H]1[C@@]24OO3 (stereo partly specified) | 1.08
3) CCO[C@H]1O[C@@H]2O[C@@]3(C)C[C@H](O)[C@H]4[C@H](C)CC[C@@H]([C@H]1C)[C@@]24OO3 | 2.7
4) CCO[C@H]1O[C@@H]2O[C@@]3(C)CC[C@H]4[C@H](C)CC[C@@H]([C@H]1C)[C@@]24OO3 [ARTEMOTIL] | 3.89
5) CCO[C@H]1O[C@@H]2O[C@@]3(C)CC[C@H]4[C@H](CO[C@H]5O[C@@H](C(=O)O)[C@H](O)[C@@H](O)[C@@H]5O)CC[C@@H]([C@H]1C)[C@@]24OO3 | 1.05
6) CCO[C@H]1O[C@@H]2O[C@@]3(C)CC[C@H]4[C@H](C)[C@H](O[C@H]5O[C@@H](C(=O)O)[C@H](O)[C@@H](O)[C@@H]5O)C[C@@H]([C@H]1C)[C@@]24OO3 | 0.93
